- STUDY SYSTEM: Gag-Pol polyprotein (Human immunodeficiency virus type 1 group M subtype B (isolate HXB2)) (UniProt P04585)
- EXPERIMENTAL PROTOCOL: HIV-1 RT RNase H inhibitors, primary screen, biochemical, fluorescence (AID 565)
- EXPERIMENTAL PARAMETERS: RT-RNase H RNA/DNA duplex cleavage, at 10 µM
Among all 65,000 compounds or so, about 1,200 (1.8%) were called active. No stated cut-off is given here; in the data, active means inhibition above about 50%; inactive means the rest. Only a selection was taken, and actives are over-represented in it overall.
Result category, one only: active, inactive

// below: answered compounds
O=C(NCc1ccccn1)c1ccc2nc(-c3ccco3)c(-c3ccco3)nc2c1 ... active
COCCN(C(=O)CCC(=O)Nc1ccccn1)C(C(=O)NCCC(C)C)c1ccc(OC)cc1 (stereo unspecified) ... inactive
O=C(Cn1c(=S)nc2ccccn21)N1CCc2ccccc2C1 ... inactive

Give the logged outcome of this assay for the following compound: "Cc1nn(-c2ccccc2)c(C)c1C(=O)OCC(=O)NC(=O)NC1CCCCC1" inactive

Which outcome was entered for the compound "Cc1cccn2c(=O)c3cc(C(=O)NCc4ccccn4)n(C)c3nc12" in this test? inactive

Dear colleague, could you share the recorded outcome for "O=C(NCc1ccccn1)c1cc2ccccc2oc1=O" when you have a moment? inactive

Please let me know the test result on file for "Cc1nnc(NC(=O)CCC(=O)N2CCC(C)CC2)s1" . inactive

Per the records of this test, what outcome belongs to "Cn1c(=O)[nH]c(=O)c2c1nc(N1CCCCCC1)n2CC(=O)c1ccccc1" ? inactive

---

Listed here are compounds together with their documented inhibition.
- STUDY SYSTEM: Gag-Pol polyprotein (Human immunodeficiency virus type 1 group M subtype B (isolate HXB2))
- EXPERIMENTAL PROTOCOL: HIV-1 RT RNase H inhibitors, primary screen, biochemical, fluorescence (AID 565)
- EXPERIMENTAL PARAMETERS: RT-RNase H RNA/DNA duplex cleavage, at 10 µM, hits give high values
Hit rate of the full screen: of about 65,000 compounds, about 1,200 (1.8%) were called active. Only a selection was taken, and actives are over-represented in it overall.
The response must be a number in % with no trailing unit.

NC(=O)C1CCN(C2OC(=O)c3ccccc32)CC1 (stereo unspecified) ... 2.61
CC(Sc1nncs1)C(=O)NCc1ccc2c(c1)OCO2 (stereo unspecified) ... -19.3

inhibition for COc1ccc(CCNC(=O)c2ccc3c(c2)NC(=O)C(N2CCOCC2)S3)cc1OC (stereo unspecified) is -10.7

Form: compound = "CC(=O)Nc1ccc(S(=O)(=O)N2CCN(CCCOc3cc(C)ccc3C)CC2)cc1" ; inhibition = -8.05

Reported inhibition ( "COCCCNC(=O)Cn1cc(C(=O)C2CC2)c2ccccc21" ) = -5.05

For "COCc1cc(C)nc(Nc2cc(C)ccc2C)c1C#N" the compound record lists inhibition as -17

---

- STUDY SYSTEM: Gag-Pol polyprotein (Human immunodeficiency virus type 1 group M subtype B (isolate HXB2)) (UniProt P04585)
- EXPERIMENTAL PROTOCOL: HIV-1 RT RNase H inhibitors, primary screen, biochemical, fluorescence (AID 565)
- EXPERIMENTAL PARAMETERS: RT-RNase H RNA/DNA duplex cleavage, at 10 µM, hits give high values
The whole screen tested about 65,000 compounds, of which about 1,200 (1.8%) were called active. Many of the other results were omitted from the sample, so actives are more common in it than they were.
Each entry below carries its reported inhibition.

CCOC(=O)C(C(=O)OCC)C(C#N)c1ccccc1 (stereo not given) ... -13.1% (inactive)
Cc1nc(C)c(C(=O)Nc2ccc(C)c(F)c2)o1 ... 31.9% (inactive)
Cc1ccccc1NC(=O)Cc1nnc(SCC(=O)N2CCN(c3ccccc3)CC2)n1C ... 1.53% (inactive)
C/C(=N\O)C1(C)N(O)C(C)(C)C(c2ccc(Br)cc2)=[N+]1[O-] (stereo not given) ... -4.23% (inactive)
CCN(CC)CCN1C(=O)C(=O)/C(=C(/O)c2ccc(OC)c(OC)c2)C1c1ccccn1 (stereo not given) ... 5.17% (inactive)

Just so you know, measured inhibition for O=C(Nc1ccc(-c2nnc(-c3ccccc3)o2)cc1)C1CCCO1 (stereo not given) came out at 4.33% (inactive)

Input "Nc1ccc(-c2nnc(-c3ccc(-c4ccccc4)cc3)o2)cc1" . Output inhibition: 80.5% (active)

Recorded result, CCC1=[N+]([O-])C(C)(/C(C)=N\O)N(O)C1(C)C (stereo not given) , inhibition: 50.7% (active)

inhibition measured on "CCOC(=O)CSc1nnc(-c2ccncc2)o1" = -9.52% (inactive)

Looking up "Cc1cccc(N=C2NC(=O)CS2)c1C" , I see its inhibition listed as -0.31% (inactive)

The recorded inhibition for "c1cnn(-c2cc(N3CCOCC3)ncn2)c1" is -2.75% (inactive)

Item: "Cn1c(CNc2nc(-c3ccccc3)cs2)nnc1SCC(=O)c1ccccc1" | inhibition: -5.65% (inactive)

inhibition reported for this compound "COc1cccc(NC(=O)CN(C)S(=O)(=O)c2ccc(C)cc2)c1" : -3.65% (inactive)

---

- STUDY SYSTEM: Gag-Pol polyprotein (Human immunodeficiency virus type 1 group M subtype B (isolate HXB2)) (UniProt P04585)
- EXPERIMENTAL PROTOCOL: HIV-1 RT RNase H inhibitors, primary screen, biochemical, fluorescence (AID 565)
- EXPERIMENTAL PARAMETERS: RT-RNase H RNA/DNA duplex cleavage, at 10 µM, hits give high values
About 1,200 (1.8%) of roughly 65,000 compounds were called active. The full list was thinned out, with actives kept by preference.
ASSAY ENDPOINT: inhibition

Example entries begin here.
O=C(NC1CCCCC1)N1CCc2[nH]c3ccccc3c2C1 ... -1.26% (inactive)
N#CCCn1cnc2ccccc21 ... -0.17% (inactive)
Cc1ccc2[nH]c3c(c2c1)CN(C(=O)CN1CCN(c2ccccc2)CC1)CC3 ... -8.5% (inactive)
CCC(Sc1nncn1C)C(=O)Nc1nnc(-c2ccc(Cl)cc2)s1 (stereo unspecified) ... -2.44% (inactive)
CCOc1cccc(-c2nnc3sc(COc4ccc(OC)cc4)nn23)c1 ... 1.27% (inactive)

Item: "COc1ccccc1CNC(=O)CCCn1c(=O)c2ccccc2n(CC(=O)NC2CCCC2)c1=O" | inhibition: -18.8% (inactive)

Form field inhibition, entry "CCCC(=O)N1CCc2[nH]c3ccccc3c2C1" : 51.2% (active)

Reported inhibition ( C#CCN1C(=O)C(O)(CC(=O)c2cc(OC)ccc2OC)c2ccccc21 (stereo unspecified) ) = -25.6% (inactive)

The recorded inhibition for "Fc1ccc(OCc2nn3c(Cn4nnc5ccccc54)nnc3s2)cc1" is 77.8% (active)

Looking up COc1cc(C2C(C(=O)c3ccc(C)o3)=C(O)C(=O)N2Cc2cccnc2)ccc1O (stereo unspecified) , I see its inhibition listed as 5.97% (inactive)

Notebook: "O=C(CSc1nnc(Cn2cnc3ccccc32)o1)c1ccccc1" , inhibition read as -18.7% (inactive)

---

- STUDY SYSTEM: Gag-Pol polyprotein (Human immunodeficiency virus type 1 group M subtype B (isolate HXB2)) (UniProt P04585)
- EXPERIMENTAL PROTOCOL: HIV-1 RT RNase H inhibitors, primary screen, biochemical, fluorescence (AID 565)
- EXPERIMENTAL PARAMETERS: RT-RNase H RNA/DNA duplex cleavage, at 10 µM, hits give high values
Among all 65,000 compounds or so, about 1,200 (1.8%) were called active. The sample as a whole holds a higher share of actives than the screen did.
compounds and their reported inhibition

Observe how each entry below is paired with its result.
CCCOC(=O)Nc1ccccc1C(N)=O ... -29.1% (inactive)
CCc1nnc(NC(=O)CSc2nnc(COc3ccc(C#N)cc3)n2-c2ccccc2)s1 ... 60.1% (active)
O=C(OCc1nnc(-c2ccccc2)o1)c1ccc2c(c1)C(=O)N(CCc1ccccc1)C2=O ... 16.2% (inactive)
O=C(CC1Nc2ccccc2NC1=O)Nc1ccccc1 (stereo unspecified) ... -4.38% (inactive)
O=C(O)CCC(=O)N(Cc1cccs1)Cc1cccs1 ... 4.03% (inactive)

// recorded inhibition for CCOC(=O)c1ccccc1NC(=O)CC1Nc2ccccc2NC1=O (stereo unspecified) : 71.6% (active)

Memo: "CNC(=O)CN1C(=O)c2ccccc2S1(=O)=O" , reported inhibition: 4.74% (inactive)

Notebook: "Cc1ccc(-c2nn(-c3ccccc3)cc2CN(Cc2ccccc2)C(=O)CCC(=O)O)o1" , inhibition read as 81.7% (active)

Kindly note the recorded inhibition for "CCc1nnc(NC(=O)CSc2nnc(Cc3ccccc3)n2-c2ccc(OC)cc2)s1" , which is 10.7% (inactive)

For "CCCc1nnc(NC(=O)CN2C(=O)c3ccccc3S2(=O)=O)s1" the compound record lists inhibition as 89.7% (active)

Per the record, c1ccc2c(c1)OCC(CNc1ncnc3nc[nH]c13)O2 (stereo unspecified) has inhibition of -8.18% (inactive)

Cited source: PubChem BioAssay AID565
